All figures here come from PubChem BioAssay (NCI).

Documented growth across a set of compounds
- System: SNB-75 CNS
- experiment_summary: NCI-60 one-dose screen, 48 h (100 = growth as untreated, 0 = no growth, -100 = all killed)
- protocol_conditions: 10 µM
- Procedure: Growth inhibition of the SNB-75 human tumor cell line is measured as a screen for anti-cancer activity. Cells are grown in 96 well plates and exposed to the test compound for 48 hours. Compounds are tested at a single concentration, which is 10^-5 M for most compounds. The reported endpoint is percent growth (GI% or GIPRCNT), where numbers from 0 - 100% represent growth inhibition, and numbers from -100% - 0 represent cell death. For example, a value of 40 represents 60% growth inhibition. […]
This is part of a sample that, as a whole, favours compounds with a hit. Of some 83,000 tested, about 20% had one in any assay.
Express it in %; write the number only.

Known growth results, listed for orientation:
INSERT INTO assay_data (compound, result) VALUES
  ('C#CCOc1c(OC)cc(C(=O)/C(C)=C/c2cccc(N=[N+]=[N-])c2)cc1OC', 15.1),
  ('O=C(Nc1cccc2c1CCCC2)c1cc2ccccc2cc1O', 63.8),
  ('CN1CCc2c(sc3nc4n(-c5ccc(Cl)cc5)cnn4c(=O)c23)C1', 94.2),
  ('CC1=NN(C(=O)c2nn(-c3ccc(Cl)cc3)cc2O)C(=O)C1', 28.7),
  ('CS(=O)(=O)c1nccc(-c2c(-c3cccc(O)c3)nc3sccn23)n1', 70.4),
  ('O=C(Nc1ccc(OS(=O)(=O)c2ccccc2)cc1)C1CCCCC1', 95.7),
  ('CC(=O)Nc1cc2c(cc1Cl)Cc1cc(Cl)ccc1-2', 64.1),
  ('CN1CCc2c(sc3nc4n(-c5ccc(Cl)cc5)c(=O)[nH]n4c(=O)c23)C1', 95.2),
  ('COc1cc(-c2nn(-c3ccc(NC(=O)NCCNS(=O)(=O)c4ccc(F)cc4)cc3)cc2-c2ccncc2)ccc1Cl', 13.8),
  ('O=C(NCCCNS(=O)(=O)c1ccc(Cl)cc1)Nc1ccc(-n2cc(-c3ccncc3)c(-c3ccc(Cl)c(O)c3)n2)cc1', 61.7);

Input line: Can you share its growth? I mean this compound: CCOC(=O)c1cc(C(=O)c2cc(OC)c(OC)c(OC)c2)n2ccc(-c3cc[n+](CC(=O)c4cc(OC)c(OC)c(OC)c4)cc3)cc12
Output line: 75.8

Input line: If you can, please state the reported growth value of COc1cc(-c2nn(-c3cccc(NC(=O)CN4CCOCC4)c3)cc2-c2cccnc2)ccc1Cl .
Output line: 65.5

Input line: Data request, read-out growth, for COc1cc(-c2ccc[nH]2)[nH]c1/C=C1\N=C(C)C(C(=O)NC(C)C)=C1C
Output line: -13.7

Input line: May I ask what growth has been recorded for Nc1ncnc2c1ncn2C1(CO)OCC(O)C(O)C1O (stereo not drawn) ?
Output line: 90.6

Input line: Consider the compound CN(C)CCCSc1ccccc1NC1=C(Cl)C(=O)C(Nc2ccccc2SCCCN(C)C)=C(Cl)C1=O and give its measured growth.
Output line: 105

Input line: GET /values?readout=growth&item= COc1cc2c3c(n(C4CCNCC4)c(=O)c2cc1OC)-c1cc2c(cc1C3=O)OCO2
Output line: -61.7

Input line: Recorded growth for Cc1c2cnccc2c(C)c2c1oc1ccccc12 , please?
Output line: 106

Input line: Name the reported growth value associated with the compound O=C(N/N=C/c1c(Cl)cccc1Cl)c1ccccc1Nc1cccc(C(F)(F)F)c1
Output line: 105

Input line: Please give the measured growth for this compound: O=C1c2c(c3c4ccccc4n(CCCCCCN4CCOCC4)c3c3[nH]c4ccccc4c23)C(=O)N1O
Output line: 74.9

Input line: Name the reported growth value associated with the compound CCOC(=O)CSc1nc(-c2cc(OC)ccc2OC)cc(-c2ccc(OC)cc2)c1C#N
Output line: 97.5

Input line: Entry COc1ccc(-c2nn(-c3cccc(Cl)c3)cc2-c2nc(N)[nH]c(=O)c2C#N)cc1 : reported growth = ?
Output line: 68.9

Input line: growth for CCN(CC)CCCC(Nc1c2ccc(Cl)cc2nc2ccc(OC)cc12)c1ccc(F)cc1 (stereo not drawn) ?
Output line: 93.3

Input line: Could you tell me which growth is on file for Cc1cn(-c2cc(F)cc(NC(=O)c3ccc(C)c(Nc4nccc(-c5cccnc5)n4)c3)c2)cn1 ?
Output line: -20.8

Input line: Record request: growth value, item COc1cc2c3c(n([C@H]4CCOC4)c(=O)c2cc1OC)-c1cc2c(cc1C3=O)OCO2
Output line: 31.9

Input line: // returns reported growth for input N#Cc1c(-c2ccc(Cl)cc2)csc1NC(=O)Nc1ccc(Cl)c(C(F)(F)F)c1
Output line: 36.5

Input line: GET /values?readout=growth&item= COc1cc2cc(Oc3ccc(NC(=O)Nc4ccc(Cl)c(Cl)c4)cc3)c(C)nc2cc1OC
Output line: 22.4

Input line: Quick check: growth of CCN1C(=O)CC(SC2CC(=O)N(CC)C2=O)C1=O (stereo not drawn) ?
Output line: 97.4

---

- System: UACC-257 melanoma
- experiment_summary: NCI-60 one-dose screen, 48 h (100 = growth as untreated, 0 = no growth, -100 = all killed)
- protocol_conditions: 10 µM
Compounds without any hit were thinned out: in the full panel of roughly 83,000, 20% have a hit.
# note: exactly 90% is not below, so it is FALSE; use TRUE for growth strictly under it

Take a look at these entries with their results.
INSERT INTO measurements (compound, assay_target, category_label) VALUES
  ('Cc1ccc(Cl)cc1NC(=O)CCl', 'UACC-257 melanoma', 'TRUE'),
  ('CCN1CCN(CCC(=O)Nc2cccc(-n3cc(-c4ccncc4)c(-c4ccc(Cl)c(OC)c4)n3)c2)CC1', 'UACC-257 melanoma', 'TRUE'),
  ('COc1cccc2ccc(CC(O)(c3ccccc3)c3ccccc3)nc12', 'UACC-257 melanoma', 'FALSE');

Input line: Determine if CC[C@@H](C(=O)[C@H](C)[C@H](O)[C@@H](C)[C@H]1O[C@H]([C@@H](CC)C(=O)O)CC[C@H]1C)C1O[C@]2(C=C[C@@H](O)[C@]3(CC[C@@](C)([C@H]4CC[C@](O)(CC)[C@H](C)O4)O3)O2)[C@H](C)C[C@@H]1C (stereo not given in full) shows growth strictly lower than 90%.
Output line: TRUE

Input line: Take the compound Cc1ccc(NCCN(C)CC(C)O)c2c(=O)c3ccccc3sc12 (stereo not given) and say whether its growth is less than 90%.
Output line: TRUE

Input line: Does this compound meet the criterion growth < 90%? CNS(=O)(=O)Oc1ccc(-c2ccc3occc3c2)cc1
Output line: FALSE

Input line: Consider the compound O=[N+]([O-])c1ccc2ncccc2c1Cl . Is its growth strictly less than 90%?
Output line: TRUE

Input line: Dear reviewer, please state whether Cc1ccc(S(=O)(=O)N(C)CCCCCC(=O)O)cc1 has growth strictly beneath 90%.
Output line: FALSE

---

- Tested on: DU-145 prostate
- experiment_summary: NCI-60 one-dose screen, 48 h (100 = growth as untreated, 0 = no growth, -100 = all killed)
- protocol_conditions: 10 µM
Compounds without any hit were thinned out: in the full panel of roughly 83,000, 20% have a hit.
Decide using growth: a value greater than or equal to 90% is 1, a smaller one is 0.

Input line: Check this compound for growth at or above 90%: C=C/C(C)=C/C[C@]1(C)[C@H](C)[C@@H](OC(=O)CCC)[C@H](O)[C@@]23C(=C[C@H](OC)C[C@@H]12)[C@@H](OC(=O)CCC)O[C@H]3OC(C)=O
Output line: 0

---

- Tested on: BT-549 breast
- experiment_summary: NCI-60 one-dose screen, 48 h (100 = growth as untreated, 0 = no growth, -100 = all killed)
- protocol_conditions: 10 µM
This is part of a sample that, as a whole, favours compounds with a hit. Of some 83,000 tested, about 20% had one in any assay. Activity calls are given as the source filed them. The calls were made as follows: active = growth percent below 10; inactive = the rest.
Each entry below carries its recorded growth.

See these solved cases before continuing.
INSERT INTO results (chemical_structure, observation_type, result) VALUES
  ('CCNCC(=O)Nc1ccc(C(=O)OCC)cc1', 'growth', '102% (inactive)'),
  ('O=C(Nc1ccccc1)Nc1ncnc2c1ncn2-c1ccccc1', 'growth', '89.4% (inactive)'),
  ('Cc1c(Cl)cccc1NC(=O)CN1CCOCC1', 'growth', '97.4% (inactive)');

Input line: Name the reported growth value associated with the compound COc1cccc(-c2nc3sccn3c2-c2cccc(S(C)(=O)=O)c2)c1
Output line: 103% (inactive)

Input line: // growth lookup, key: N#Cc1c(-c2ccc(Cl)cc2)cc(-c2cc(O)ccc2O)nc1N
Output line: 22.6% (inactive)

Input line: // growth lookup, key: COc1cc2c(Nc3ccc(S(N)(=O)=O)cc3)ncnc2c(OC)c1OC
Output line: 126% (inactive)
